biological target: human CYP11B1 (Homo sapiens, UniProt P15538); experiment: G-402 cellular enzyme assay, human CYP11B1 (cortisol release, HTRF); conditions: G-402 cells, 1 μM Deoxycortisol
Sequence (P15538 25-503): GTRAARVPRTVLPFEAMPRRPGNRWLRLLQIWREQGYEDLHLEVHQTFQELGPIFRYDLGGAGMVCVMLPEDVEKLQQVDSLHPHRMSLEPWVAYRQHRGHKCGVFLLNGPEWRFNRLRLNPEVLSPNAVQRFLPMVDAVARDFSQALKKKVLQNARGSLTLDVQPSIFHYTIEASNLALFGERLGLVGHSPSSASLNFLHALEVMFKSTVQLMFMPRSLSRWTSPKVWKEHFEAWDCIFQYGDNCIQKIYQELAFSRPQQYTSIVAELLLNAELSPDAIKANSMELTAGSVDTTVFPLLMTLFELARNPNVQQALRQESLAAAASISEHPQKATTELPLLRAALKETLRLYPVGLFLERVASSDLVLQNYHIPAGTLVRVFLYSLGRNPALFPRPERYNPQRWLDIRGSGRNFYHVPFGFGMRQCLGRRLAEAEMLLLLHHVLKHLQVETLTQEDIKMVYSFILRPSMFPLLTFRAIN
Reported EC50 values follow for various compounds

compound	test_system	EC50 (µM)
CC(C)c1nccn1Cc1cncc(N2C(=O)c3ccc(Cl)cc3CC2C)c1 (stereo not drawn)	human CYP11B1 (Homo sapiens, UniProt P15538)	9.37
COc1cncc(N2CCc3cc(Cl)c(F)cc3C2=O)c1	human CYP11B1 (Homo sapiens, UniProt P15538)	0.485
CC1(C)c2cc(Cl)ccc2C(=O)N1c1cncc(Cn2ccc(N)n2)c1	human CYP11B1 (Homo sapiens, UniProt P15538)	2.42

----------
molecular target: human CYP11B1 (Homo sapiens, UniProt P15538); experiment: G-402 cellular enzyme assay, human CYP11B1 (cortisol release, HTRF); settings: G-402 cells, 1 μM Deoxycortisol
pEC50: −log10 of the molar value.
reported_property: pEC50

molecule	readout_value
CCC(=O)N[C@H]1CCc2c1cncc2N1C(=O)c2ccc(Cl)cc2[C@H]1C (single isomer, unassigned) [Example 377]	6.35
O=C(c1cncc(N2CCc3cc(Cl)ccc3C2=O)c1)N1CCOCC1 [Example 39]	5.00
O=C1c2ccc(Cl)cc2CCN1c1cncc(C(O)C(F)(F)F)c1 (centres unmarked) [Example 18]	6.29
O=C1c2ccc(Cl)cc2CCN1c1cncc(-c2ccc(Cl)c(F)c2)c1 [Example 240]	5.49
COCc1cncc(N2CCc3cc(Cl)ccc3C2=O)c1 [Example 193]	6.66
CC(O)c1ccncc1N1CCc2cc(Cl)ccc2C1=O (centres unmarked) [Example 55]	5.01
CCC(=O)N[C@@H]1CCc2c1cncc2N1C(=O)c2ccc(Cl)cc2[C@H]1C (single isomer, unassigned) [Example 376]	5.10
CCC(=O)NCc1cncc(N2C(=O)c3ccc(Cl)cc3C2CC)c1 (single isomer, unassigned) [Example 399]	4.95

----------
Reported EC50 values follow for various compounds
target: human CYP11B2 (Homo sapiens); assay: G-402 cellular enzyme assay, human CYP11B2 (aldosterone release, HTRF); conditions: G-402 cells, 1 μM Deoxycorticosterone
Sequence (P19099 25-503): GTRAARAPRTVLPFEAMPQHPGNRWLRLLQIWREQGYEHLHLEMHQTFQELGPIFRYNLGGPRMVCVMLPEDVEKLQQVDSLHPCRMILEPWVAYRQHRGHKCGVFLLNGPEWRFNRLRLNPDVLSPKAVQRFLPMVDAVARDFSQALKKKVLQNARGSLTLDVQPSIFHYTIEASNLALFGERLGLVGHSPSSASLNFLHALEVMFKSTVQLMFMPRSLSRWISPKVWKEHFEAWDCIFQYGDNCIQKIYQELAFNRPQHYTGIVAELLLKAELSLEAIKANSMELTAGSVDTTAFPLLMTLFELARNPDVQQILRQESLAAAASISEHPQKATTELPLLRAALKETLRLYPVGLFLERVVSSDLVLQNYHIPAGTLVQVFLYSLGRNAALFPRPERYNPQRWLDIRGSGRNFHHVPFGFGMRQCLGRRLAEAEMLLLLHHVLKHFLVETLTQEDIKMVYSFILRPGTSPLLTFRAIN
reported_property: EC50 (nM)

compound	unit_info	readout_value
Cn1cncc1C(=O)NCc1cncc(N2C(=O)c3ccc(Cl)cc3C2(C)C)c1 [Example 435]	nM	8.8
Cc1cc(-c2cncc(N3CCc4cc(Cl)ccc4C3=O)c2)n(C)n1 [Example 422]	nM	154
O=C1c2ccc(Cl)cc2CCN1c1cncc(Cn2ccnc2)c1 [Example 140]	nM	11.8
CC(=O)N1CC[C@H](Oc2cncc(N3C(=O)c4ccc(Cl)cc4C3(C)C)c2)C1 [Example 443]	nM	9
Cc1noc(C)c1-c1cncc(N2CCc3cc(Cl)ccc3C2=O)c1 [Example 230]	nM	7
CCC(=O)N[C@@H]1CCCc2c1cncc2N1C(=O)c2ccc(Cl)cc2[C@H]1CC (single isomer, unassigned) [Example 354]	nM	12.2
CCS(=O)(=O)NC1CCCc2c1cncc2N1Cc2cc(Cl)ccc2C1=O (single isomer, unassigned; (-)) [Example 317]	nM	109
Cc1nccn1Cc1cncc(N2Cc3cc(Cl)ccc3C2=O)c1 [Example 111]	nM	64.2
O=C1c2ccc(Cl)cc2CCN1c1cncc(Cn2cncn2)c1 [Example 180]	nM	123

----------
biological target: human CYP11B1 (Homo sapiens, UniProt P15538); test: G-402 cellular enzyme assay, human CYP11B1 (cortisol release, HTRF); details: G-402 cells, 1 μM Deoxycortisol
pEC50: −log10 of the molar value.
Reported pEC50 values follow for various compounds
reported_property: pEC50

compound	readout_value
CCS(=O)(=O)NCc1cncc(N2Cc3cc(Cl)ccc3C2=O)c1 [Example 115]	4.87
Cn1ccnc1C(=O)c1cncc(N2CCc3cc(Cl)ccc3C2=O)c1 [Example 267]	4.95
Nc1cccc2c(N3CCc4cc(Cl)ccc4C3=O)cncc12 [Example 288]	5.05
